The measured values listed here are drawn from patent US12668600B2.

# IC50 per entry
- Study target: KRAS G12V (Homo sapiens, UniProt P01116, G12V)
- Sequence (P01116 1-188 isoform P01116-2 G12V): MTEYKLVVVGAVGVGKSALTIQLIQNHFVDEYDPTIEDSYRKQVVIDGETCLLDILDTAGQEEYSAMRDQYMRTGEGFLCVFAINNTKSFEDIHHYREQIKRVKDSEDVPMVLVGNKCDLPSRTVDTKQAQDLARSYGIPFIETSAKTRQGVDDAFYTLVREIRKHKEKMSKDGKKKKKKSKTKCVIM
- Procedure details: HTRF KRAS-SOS1 interaction assay, KRAS G12V
- Condition notes: binned ≤2 μM / >2 μM, read-out: Inhibition of KRAS G12V (IC50)

Consider the following illustrative entries.
[
  {
    "Molecule": "C[C@H](c1cccnc1N)N1CCOc2c(Cl)c(-c3ccc(F)c4sc(N)c(C#N)c34)c(F)c3nc(OC[C@@]45CCCN4CC(=NOCC(F)(F)F)C5)nc1c23 (mixture of isomers)",
    "Study target": "KRAS G12V (Homo sapiens, UniProt P01116, G12V)",
    "Quantity name": "IC50",
    "Measured result": "≤ 2000 nM"
  },
  {
    "Molecule": "CCO/N=C(\\C)CCC[C@H](c1cccnc1N)N1CCOc2c(C(F)(F)F)c(-c3ccc(F)c4sc(N)c(C#N)c34)c(F)c3nc(OC[C@@]45CCCN4C[C@H](F)C5)nc1c23 (single isomer, unassigned) [Compound 859]",
    "Study target": "KRAS G12V (Homo sapiens, UniProt P01116, G12V)",
    "Quantity name": "IC50",
    "Measured result": "> 2000 nM"
  }
]

Now, please, on to the next molecule.
Request: Item C[C@H](c1cccnc1N)N1CCOc2c(C(F)(F)F)c(-c3ccc(F)c4sc(N)c(C#N)c34)c(F)c3nc(OC[C@@]45CCCN4C[C@H](F)C5)nc1c23 (single isomer, unassigned) with KRAS G12V (Homo sapiens, UniProt P01116, G12V) - IC50?
Response: ≤ 2000 nM

* * *

- Study target: KRAS G12S (Homo sapiens, UniProt P01116, G12S)
- Sequence (P01116 1-188 isoform P01116-2 G12S): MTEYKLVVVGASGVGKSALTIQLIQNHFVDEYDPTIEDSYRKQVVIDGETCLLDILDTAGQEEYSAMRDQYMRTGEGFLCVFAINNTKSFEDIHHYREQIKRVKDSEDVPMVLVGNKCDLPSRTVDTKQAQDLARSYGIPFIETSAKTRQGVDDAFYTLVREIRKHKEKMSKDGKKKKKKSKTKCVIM
- Procedure details: HTRF KRAS-SOS1 interaction assay, KRAS G12S
- Condition notes: binned ≤2 μM / >2 μM, read-out: Inhibition of KRAS G12S (IC50)
pIC50: −log10 of the molar value.
Quantity name: pIC50

Some molecules with known pIC50 results, for comparison:
[
  {
    "Molecule": "C[C@H](c1cccnc1N)N1CCOc2c(C(F)(F)F)c(-c3ccc(F)c4sc(N)c(C#N)c34)c(F)c3nc(OC[C@@]45CCCN4CC(C#N)C5)nc1c23 (single isomer, unassigned) [Compound 663]",
    "Quantity name": "pIC50",
    "Measured result": "≥ 5.70"
  },
  {
    "Molecule": "C=C(F)[C@H](c1cccnc1N)N1CCOc2c(Cl)c(-c3ccc(F)c4sc(N)c(C#N)c34)c(F)c3nc(OC[C@@]45CCCN4C[C@H](F)C5)nc1c23",
    "Quantity name": "pIC50",
    "Measured result": "≥ 5.70"
  },
  {
    "Molecule": "C[C@H](c1cccnc1N)N1CCOc2c(Cl)c(-c3ccc(F)c4sc(N)c(C#N)c34)c(F)c3nc(OC[C@@H]4CC(F)(F)CN4C)nc1c23 (single isomer, unassigned)",
    "Quantity name": "pIC50",
    "Measured result": "≥ 5.70"
  },
  {
    "Molecule": "C[C@H](c1cccnc1N)N1CCOc2nc(-c3ccc(F)c4sc(N)c(C#N)c34)c(F)c3nc(OC[C@@H]4CCCN4C)nc1c23 (single isomer, unassigned)",
    "Quantity name": "pIC50",
    "Measured result": "≥ 5.70"
  },
  {
    "Molecule": "C[S+]([O-])CCC[C@H](c1cccnc1N)N1CCOc2c(C(F)(F)F)c(-c3ccc(F)c4sc(N)c(C#N)c34)c(F)c3nc(OC[C@@]45CCCN4C[C@H](F)C5)nc1c23 (mixture of isomers)",
    "Quantity name": "pIC50",
    "Measured result": "≥ 5.70"
  }
]

Request: Returns the measured pIC50 for the input molecule. Input: CON=C1CN2CCC[C@@]2(COc2nc3c4c(c(Cl)c(-c5ccc(F)c6sc(N)c(C#N)c56)c(F)c4n2)OCCN3[C@H](C)c2cccnc2N)C1 (mixture of isomers)
Response: ≥ 5.70

Request: And then N#Cc1c(N)sc2c(F)ccc(-c3c(Cl)c4c5c(nc(OC[C@@]67CCCN6C[C@H](F)C7)nc5c3F)N(C(CCCO)c3cccnc3N)CCO4)c12 (mixture of isomers) , what is it?
Response: ≥ 5.70

Request: Input C[C@H](c1nccnc1N)N1CCOc2c(C(F)(F)F)c(-c3ccc(F)c4sc(N)c(C#N)c34)c(F)c3nc(OC[C@@]45CCCN4C[C@H](F)C5)nc1c23 (single isomer, unassigned) [Compound 797]
Response: < 5.70

Request: C[C@H](c1cc(Cl)cnc1N)N1CCOc2c(C(F)(F)F)c(-c3ccc(F)c4sc(N)c(C#N)c34)c(F)c3nc(OC[C@@]45CCCN4CC(=C(F)F)C5)nc1c23 ?
Response: ≥ 5.70

Request: And N#Cc1c(N)sc2c(F)ccc(-c3c(Cl)c4c5c(nc(OC[C@@]67CCCN6C[C@H](F)C7)nc5c3F)N(C(c3cccnc3N)C(F)F)CCO4)c12 (single isomer, unassigned) ?
Response: ≥ 5.70

Request: // repeat for Cc1c(F)c(N)cc(-c2nc3c4c(nc(OC[C@@H]5CCCN5C)nc4c2F)N([C@H](C)c2cccnc2N)CCO3)c1C(F)(F)F (single isomer, unassigned) and report
Response: ≥ 5.70

Request: Now the same for N#Cc1c(N)sc2c(F)ccc(-c3c(C(F)(F)F)c4c5c(nc(OC[C@@]67CCCN6CC(=C(F)F)C7)nc5c3F)N([C@H](CCC3CCOCC3)c3cccnc3N)CCO4)c12
Response: ≥ 5.70

Request: How about this molecule: C#CC(F)(F)[C@H](c1cccnc1N)N1CCOc2c(Cl)c(-c3ccc(F)c4sc(N)c(C#N)c34)c(F)c3nc(OC[C@@]45CCCN4C[C@H](F)C5)nc1c23
Response: ≥ 5.70

Request: Next: CC[S+]([O-])[C@@H]1C[C@]2(COc3nc4c5c(c(Cl)c(-c6ccc(F)c7sc(N)c(C#N)c67)c(F)c5n3)OCCN4[C@H](C)c3cccnc3N)CCC[N+]2([O-])C1 (mixture of isomers)
Response: ≥ 5.70

Request: Next molecule: C[C@H](c1cc(F)cnc1N)N1CCOc2c(C(F)(F)F)c(-c3ccc(F)c4sc(N)c(C#N)c34)c(F)c3nc(OCC4(CN5CCC6(CC5)CC6(F)F)CC4)nc1c23
Response: ≥ 5.70

Request: Next entry: C[C@H](c1ccc(F)nc1N)N1CCOc2c(C(F)(F)F)c(-c3ccc(F)c4sc(N)c(C#N)c34)c(F)c3nc(OC[C@@]45CCCN4C[C@H](F)C5)nc1c23 (single isomer, unassigned)
Response: ≥ 5.70

Request: # iterate: C[C@H](Oc1nc2c3c(c(Cl)c(-c4ccc(F)c5sc(N)c(C#N)c45)c(F)c3n1)OCCN2[C@H](C)c1cccnc1N)[C@@H]1CCCN1C (single isomer, unassigned) [Compound 633]
Response: ≥ 5.70

Request: Next up: C[C@H](c1cc(F)cnc1N)N1CCOc2c(C(F)(F)F)c(-c3ccc(F)c4sc(N)c(C#N)c34)c(F)c3nc(OC[C@@]45CCCN4C[C@H](F)C5)nc1c23 (single isomer, unassigned) [Compound 864]
Response: ≥ 5.70

Request: And what about the molecule C[C@H](c1cccnc1N)N1CCOc2c(C(F)(F)F)c(-c3ccc(F)c4sc(N)c(C#N)c34)c(F)c3nc(OCC4(CN5[C@H](C)COC[C@@H]5C)CC4)nc1c23 (single isomer, unassigned) [Compound 763] ?
Response: ≥ 5.70
